# Test system: HMPV clinical isolate TN/1501/A1
# ASSAY OVERVIEW: HMPV antiviral assay Method-B (clinical isolate TN/1501/A1 in LLC-MK2 cells, ATP-Lite readout)
# Assay type: cell-based, Human metapneumovirus (HMPV)
# ASSAY SETUP: human metapneumovirus, LLC-MK2, 144 h, hMPV WT1501 (clinical isolate TN/1501/A1), 6 days
QUANTITY NAME: EC50

The cases that follow already have their EC50 on record.
COc1cc(C(=O)NC[C@](O)(c2cc3c(c(-c4ccc(OCC(F)F)cc4)n2)OC[C@]3(C)C(N)=O)C(F)(F)F)cc2cn(C3CC3)nc12    < 500 nM
C[C@]1(C(N)=O)COc2c1cc([C@@](O)(CNC(=O)c1cc(OC3CC3)c3nc(Cl)ccc3c1)C(F)(F)F)nc2-c1ccc(F)cc1    > 500 nM
C[C@]1(C(N)=O)COc2c1cc([C@@](O)(CNC(=O)c1cc(OC3CC3)c3nn(C4(F)CC4)cc3c1)C1CC1)nc2-c1csc2c(F)cccc12    < 500 nM
COc1cc(C(=O)NC[C@](O)(c2cc3c(c(-c4ccc(Cl)c(F)c4F)n2)OC[C@]3(C)C(N)=O)C2CC2)cc2cc(Cl)c(C)nc12    < 500 nM
Cc1cnc2c(Cl)cc(C(=O)NC[C@](O)(c3cc4c(c(-c5cccc(Br)c5F)n3)OC[C@]4(C)C(N)=O)C3CC3)cc2c1    < 500 nM

Query: Name the recorded EC50 of the compound listed here: Cc1cnc2c(Cl)cc(C(=O)NC[C@](O)(c3cc4c(c(-c5ccc(C(F)(F)F)cc5)n3)OC[C@]4(C)C(N)=O)C3CC3)cc2c1
Response: < 500 nM

Query: Name the recorded EC50 of the compound listed here: COc1cc(C(=O)NC[C@](O)(c2cc3c(c(-c4ccc5nn(C(F)F)cc5c4)n2)OC[C@]3(C)C(N)=O)C(F)(F)F)cc2cn(C3CC3)nc12
Response: > 500 nM

Query: Name the recorded EC50 of the compound listed here: COc1cc(C(=O)NC[C@](O)(c2cc3c(c(-c4ccc(Cl)cc4)n2)OC[C@]3(C)C(N)=O)C(F)(F)F)cc2cn(C3CC3)nc12
Response: > 500 nM

Query: Name the recorded EC50 of the compound listed here: C[C@]1(C(N)=O)COc2c1cc([C@@](O)(CNC(=O)c1cc(F)c3nc(N)sc3c1)C1CC1)nc2-c1ccc2c(c1)OC(F)(F)O2
Response: < 500 nM

Query: Name the recorded EC50 of the compound listed here: Cc1nc2c(OC3CC3)cc(C(=O)NC[C@](O)(c3cc4c(c(-c5ccc(F)c(F)c5F)n3)OC[C@]4(C)C(N)=O)C3CC3)cc2cc1Cl
Response: < 500 nM

Query: Name the recorded EC50 of the compound listed here: COc1cc(C(=O)NC[C@](O)(c2cc3c(c(-c4ccc(F)c(Cl)c4)n2)OC[C@]3(CF)C(N)=O)C(F)(F)F)cc2cc(Cl)c(C)nc12
Response: < 500 nM

Query: Name the recorded EC50 of the compound listed here: COc1cc(C(=O)NC[C@](O)(c2cc3c(c(-c4ccc5c(c4)OC(F)(F)O5)n2)OC[C@]3(C)C(N)=O)C(F)(F)F)cc2cc(Cl)c(C)nc12
Response: < 500 nM
